target: CYP3A4 (Homo sapiens, UniProt P08684); conditions: 30 min, 10 µM
Sequence (P08684 whole entry): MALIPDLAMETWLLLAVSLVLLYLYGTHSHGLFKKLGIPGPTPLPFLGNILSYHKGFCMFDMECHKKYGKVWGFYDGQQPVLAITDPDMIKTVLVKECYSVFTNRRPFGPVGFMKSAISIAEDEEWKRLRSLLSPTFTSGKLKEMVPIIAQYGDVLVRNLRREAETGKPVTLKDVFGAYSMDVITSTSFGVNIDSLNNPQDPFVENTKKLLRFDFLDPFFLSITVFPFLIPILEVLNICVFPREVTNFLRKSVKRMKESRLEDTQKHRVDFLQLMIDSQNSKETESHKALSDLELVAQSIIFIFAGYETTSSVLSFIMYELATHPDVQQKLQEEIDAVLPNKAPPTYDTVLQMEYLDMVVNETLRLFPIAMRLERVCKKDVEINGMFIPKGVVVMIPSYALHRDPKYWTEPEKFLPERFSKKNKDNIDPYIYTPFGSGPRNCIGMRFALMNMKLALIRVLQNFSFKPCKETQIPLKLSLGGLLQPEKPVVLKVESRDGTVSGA
Measurement label: CYP3A4 (% inhibition)

Compound	Measurement label	Assay result
COc1c(C)cc2c(c1O)[C@@H]1C3[C@@H]4SC[C@]5(NC(C)Cc6c5[nH]c5ccc(F)cc65)C(=O)COC[C@@H](c5c6c(c(C)c(OC(C)=O)c54)OCO6)N3[C@@H](O)[C@H](C2)N1C (stereo partly shown) [Compound 41]	CYP3A4 (% inhibition)	22
COc1c(C)cc2c(c1O)[C@@H]1C3[C@@H]4SC[C@]5(NC(C)Cc6c5[nH]c5ccccc65)C(=O)COC[C@@H](c5c6c(c(C)c(OC(C)=O)c54)OCO6)N3[C@@H](O)[C@H](C2)N1C (stereo partly shown) [Compound 43]	CYP3A4 (% inhibition)	15
COc1c(C)cc2c(c1O)[C@@H]1C3[C@@H]4SC[C@]5(NC(C)Cc6c5[nH]c5ccc(F)cc65)C(=O)COC[C@@H](c5c6c(c(C)c(OC(C)=O)c54)OCO6)N3[C@@H](O)[C@H](C2)N1C (stereo partly shown) [Compound 42]	CYP3A4 (% inhibition)	78
COc1c(C)cc2c(c1O)[C@@H]1C3[C@@H]4SC[C@]5(NC(C)Cc6c5[nH]c5ccccc65)C(=O)COC[C@@H](c5c6c(c(C)c(OC(C)=O)c54)OCO6)N3[C@@H](O)[C@H](C2)N1C (stereo partly shown) [Compound 44]	CYP3A4 (% inhibition)	72
